# Tested on: MCF−7
# test-summary: WST-1 cytotoxicity, 72 h
# Type: cell-based
# stated-conditions: MCF−7, 72 h, mean ± SEM
pIC50: −log10 of the molar value.
Criterion: pIC50 meeting or surpassing 6. Met: met. Not met: not met.

Cc1c(C)c2cccnc2c2ncccc12.N[C@H]1CCCC[C@@H]1N.O=[N+]([O-])[O-].O=[N+]([O-])[O-].[Pt+2]; met
N[C@H]1CCCC[C@@H]1N.O=[N+]([O-])[O-].O=[N+]([O-])[O-].[Pt+2].c1cnc2c(c1)ccc1cccnc12; not met
Cc1cc2cccnc2c2ncccc12.N[C@H]1CCCC[C@@H]1N.O=[N+]([O-])[O-].O=[N+]([O-])[O-].[OH][Pt+2][OH]; not met
N.N.[Cl][Pt][Cl] [Cisplatin, cisplatin]; not met

Attention now shifts to the item below.
QUERY: Is the recorded value of pIC50 equal to or greater than 6 for this compound? `N[C@H]1CCCC[C@@H]1N.O=[N+]([O-])[O-].O=[N+]([O-])[O-].[OH-].[OH-].[Pt+4].c1cnc2c(c1)ccc1cccnc12`
RESULT: not met
